tested on: SNB-75 CNS; test: NCI-60 one-dose screen, 48 h; conditions: 10 µM unless noted
About 83,000 compounds went through this panel and 20% of them were active in at least one assay; those are over-represented in the sample as a whole. The source made the active and inactive calls. The calls were made as follows: active = growth percent below 10; inactive = the rest.
Hi! Could you answer with just one of these? true (1) (active), false (0) (inactive)

Worked set:
>>> classname("COC(=O)c1[nH]cnc1/N=N/N(C)CCO")
"false (0)"
>>> classname("COc1cc(C(=O)NNC(=O)c2ccc(NC(=O)CCl)cc2)cc(OC)c1OC")
"false (0)"
>>> classname("O=C(O)c1ccc2c(c1)nc(Nc1cccc(Cl)c1)c1ccncc12")
"true (1)"

**Q:** Could you check what this test reported for NC1=Nc2ccccc2N(O)N1 ?
**A:** false (0)

**Q:** Which outcome did this test record for the compound CO[C@@H](C(=O)N1Cc2[nH]nc(NC(=O)c3ccc(N4CCN(C)CC4)cc3)c2C1)c1ccccc1 ?
**A:** true (1)

**Q:** Any idea what this test logged for C=CCCCC(=O)CCC(=O)OCC1O[C@@H](O[C@@H]2C(O)[C@@H](OC(C)=O)C(C)O[C@H]2O[C@H](CC=C)CCCCC)C(O)[C@@H](OC(=O)/C(C)=C/C)[C@@H]1OC(=O)/C=C/c1ccccc1 (stereo partly drawn) ?
**A:** false (0)

**Q:** Call for entry COC(=O)[C@]12CC[C@@H](C)[C@H](C)[C@@H]1C1=CC[C@@H]3[C@@]4(C)C(c5cnco5)=C[C@@](C)(CO)C4=CC[C@@]3(C)[C@]1(C)CC2 :
**A:** false (0)

**Q:** Call for entry COc1ccc(-c2cnc(-c3ccc(Cl)cc3)[nH]2)cc1OC :
**A:** false (0)

**Q:** What did this assay record as the result for COc1ccc(-c2nocc2-c2cc(OC)c(OC)c(OC)c2)cc1 ?
**A:** false (0)

**Q:** # lookup: test call for CC1(COc2ccc3c(c2)ncn3-c2ccc3cccc(N4CCC(N)CC4)c3n2)COC1
**A:** false (0)

**Q:** Give the logged outcome of this assay for the following compound: C[C@@H]1COC(Nc2ccc3ncnc(Nc4ccc(OCc5nccs5)c(Cl)c4)c3c2)=N1
**A:** false (0)

**Q:** Test call for this compound, please: Cc1nc(NC(=O)N2CCC[C@H]2C(N)=O)sc1-c1ccnc(C(C)(C)C(F)(F)F)c1
**A:** false (0)

**Q:** Called result for CC(C)[C@@H]1CC[C@@H]2[C@@H]1[C@H](OC(=O)/C=C/c1ccccc1)[C@]1(C(C)C)C[C@@H](OC(=O)CO)[C@@]2(C)O1
**A:** false (0)

**Q:** Recorded call for CNC(=O)c1cnc(C)nc1-c1cc(C(C)(C)C)c(O)c(C(C)(C)C)c1 ?
**A:** false (0)

**Q:** What call does the record list for C=C1C[C@H](O)[C@H](Br)C(C)(C)[C@@]12CCC(C)=C(Cl)C2 ?
**A:** false (0)

**Q:** Record lookup: outcome of this test for Cc1ccc(N)cc1CN1C(=O)c2ccccc2C1=O ?
**A:** false (0)

**Q:** Test call for this compound, please: CCCCn1c(C)nc2ccc(Nc3nc(N4CCN(C)CC4)nc4nc[nH]c34)cc21
**A:** false (0)

**Q:** Called result for CN1CC[C@H](c2c(O)cc(O)c3c(=O)cc(-c4ccccc4Cl)oc23)[C@H](O)C1
**A:** true (1)

**Q:** What is the recorded call for this compound in the test? Nc1c(C(=O)c2ccccc2)sc2nc(-c3cccs3)ccc12
**A:** false (0)

**Q:** // outcome(item) with item = COCCN1CCN(Cc2ccc(-c3n[nH]c4c3C(=O)c3c(NC(=O)NN5CCOCC5)cccc3-4)cc2)CC1
**A:** true (1)

**Q:** Returns: the outcome recorded for COc1cnc2c(c1)C(=O)c1c-2n(CCCNC2=NCCS2)c(=O)c2cc(Cl)ccc12 in this assay.
**A:** false (0)

**Q:** Please let me know the test result on file for [2H]C1([2H])[C@H](C)O[C@H](C)C([2H])([2H])N1c1ccc(NC(=O)c2cccc(-c3ccc(OC(F)(F)F)cc3)c2C)cn1 .
**A:** false (0)

**Q:** Name the outcome recorded for COc1cccc2cc(-c3nc(C4CCC(C(=O)O)CC4)n4ncnc(N)c34)[nH]c12 (stereo not drawn) in the assay.
**A:** true (1)

---

system: A498 renal; assay: NCI-60 one-dose screen, 48 h; settings: 10 µM unless noted
The panel holds about 83,000 compounds, 20% with a hit somewhere; the sample as a whole holds those more often. The source made the active and inactive calls. How the source made its calls: active means growth percent below 10; inactive means the rest.
Your reply should match one of these outcome classes. Yes = active, No = inactive

>>> classname("CSc1nc2ncncc2[nH]1")
"No"
>>> classname("C[C@@H](Oc1cc(-c2cnn(C3CCNCC3)c2)cnc1N)c1c(Cl)ccc(F)c1Cl")
"Yes"
>>> classname("Clc1nc(Cl)c2ncn(C/C=C\\Cn3cnc4c(Cl)nc(Cl)nc43)c2n1")
"Yes"
>>> classname("O=C(NO)c1ccc(Cn2c(=O)n(CCc3ccccc3)c(=O)c3ccccc32)cc1")
"No"
>>> classname("CCN(CC)CCNC(=O)c1c(C)[nH]c(/C=C2\\C(=O)Nc3ccc(F)cc32)c1C")
"No"

**Q:** Short answer needed: outcome of this test for CC[C@H](Nc1ncnc2nc[nH]c12)c1nc2cccc(F)c2c(=O)n1-c1ccccc1 ?
**A:** Yes

**Q:** Could you check what this test reported for CC(=O)C(C(C)=O)C(c1ccccc1)C(C(C)=O)C(C)=O ?
**A:** No

**Q:** Could you please tell me the result logged for COc1cc2ncnc(Nc3ccc(O)cc3)c2cc1OC in this assay?
**A:** No

**Q:** Recorded call for Cc1c(N)ccc(-c2ccc(N)c(C)c2S(=O)(=O)O)c1S(=O)(=O)O ?
**A:** No

**Q:** Recorded test outcome, item CNC(=O)c1nn(C)c2c1C(C)(C)Cc1cnc(Nc3ccc(N4CCN(C)CC4)cc3)nc1-2
**A:** Yes

**Q:** What was the test verdict on CCN1CCN(Cc2ccc(-c3cc4c(N[C@H](C)c5ccccc5)ncnc4[nH]3)cc2)CC1 ?
**A:** No

**Q:** # outcome recorded in this test, key = CC1(COc2ccc3c(c2)ncn3-c2ccc3cccc(N4CCC(N)CC4)c3n2)COC1
**A:** No

**Q:** Status in this test for COCC(=O)NC/C=C/c1ccc2ncnc(Nc3ccc(Oc4ccc(C)nc4)c(C)c3)c2c1 ?
**A:** No

**Q:** Any idea what this test logged for Cc1c(NC(=O)OC[C@@H]2COCCN2)cn2ncnc(Nc3ccc4c(cnn4Cc4cccc(F)c4)c3)c12 ?
**A:** Yes

**Q:** State the result this test recorded for CO[C@@H](C)Cn1c(=O)n(C)c2cnc3ccc(-c4cncc(C(C)(C)O)c4)cc3c21 .
**A:** Yes

**Q:** Recorded test call requested for Cc1cc2c(-c3nc4ccccn4c3NC34CC5CC(CC(C5)C3)C4)c(O)c(O)cc2c(O)c1-c1c(C)cc2c(-c3nc4ccccn4c3NC34CC5CC(CC(C5)C3)C4)c(O)c(O)cc2c1O
**A:** No

**Q:** For COc1cc2nccc(Oc3ccc(NC(=O)C4(C(=O)Nc5ccc(F)cc5)CC4)cc3)c2cc1OC , what call appears in the results of this test?
**A:** Yes

**Q:** What was the test verdict on CN1C/C=C\CCOc2cccc(c2)-c2ccnc(n2)Nc2cccc(c2)C1 ?
**A:** Yes

---

test system: HOP-92 NSCLC; assay: NCI-60 one-dose screen, 48 h; settings: 10 µM unless noted
Compounds without any hit were thinned out: in the full panel of roughly 83,000, 20% have a hit. Active and inactive are the calls of the source. How the source made its calls: active means growth percent below 10; inactive means the rest.
Tick one outcome: active, inactive

>>> classname("O=C(NOCCO)c1cc(CN2OCCCC2=O)c(F)c(F)c1Nc1ccc(I)cc1F")
"active"
>>> classname("O=C(CNc1nc2ccccc2s1)Nc1ccc(-c2nc3ccccc3s2)cc1")
"inactive"

**Q:** Recorded test call requested for CN1CCC(COc2cnc(-c3cccc(Cn4nc(-c5cccc(C#N)c5)ccc4=O)c3)nc2)CC1
**A:** inactive

**Q:** I would be grateful if you could indicate the recorded call for Nc1c2c(c(O)c3c1=C(CO)C=N3)=NCCS2=O (stereo not given) .
**A:** active

**Q:** Test call, this molecule: CO[C@H]1C[C@@H]2CC[C@@H](C)[C@@](O)(O2)C(=O)C(=O)N2CCCC[C@H]2C(=O)O[C@H]([C@H](C)C[C@@H]2CC[C@@H](O)[C@H](OC)C2)CC(=O)[C@H](C)/C=C(\C)[C@@H](O)[C@@H](OC)C(=O)[C@H](C)C[C@H](C)\C=C/C=C/C=C/1C
**A:** inactive

**Q:** Give the logged outcome of this assay for the following molecule: CC(C)(C)C(=O)OCOP(=O)(OCOC(=O)C(C)(C)C)C1CCCN(OC(=O)c2ccccc2)C1=O (stereo not given)
**A:** inactive

**Q:** Given CCc1cnn2c(NCc3ccc[n+]([O-])c3)cc(N3CCCC[C@H]3CCO)nc12 , state the outcome it received in this test.
**A:** active

**Q:** What was the test verdict on COc1ccc(-c2ccc3ncc4c(c3c2)n(-c2ccc(N3CCNCC3)c(C(F)(F)F)c2)c(=O)n4C)cn1 ?
**A:** active

**Q:** What did the test return for COC(=O)Nc1nc2ccc(C(=O)c3ccc(N(C)C4COC4)cc3)cc2[nH]1 ?
**A:** inactive

**Q:** What is the recorded call for this molecule in the test? C=CC[n+]1c(/C=C/C=C2\N(C)c3ccccc3C2(C)C)sc2ccc(OC)cc21
**A:** active
